- Test description: activity coefficient (dimensionless); of the first substance listed, at infinite dilution; xn = mol fraction of the nth substance listed
- Run conditions: 323.15 K; 101.33 kPa; Liquid; Chromatography; x1 = 0
Classify as follows. Reported activity coefficient greater than or equal to 3: met. Reported activity coefficient below: not met.

- Molecule: "CCCCCCCC [octane] + CCCCCCn1cc[n+](C)c1C.O=S(=O)([N-]S(=O)(=O)C(F)(F)F)C(F)(F)F"
  Assigned class: "met"
- Molecule: "Cc1ccccc1C [1,2-dimethylbenzene] + CCCCCCn1cc[n+](C)c1C.O=S(=O)([N-]S(=O)(=O)C(F)(F)F)C(F)(F)F"
  Assigned class: "not met"
- Molecule: "CCCCCCCCCC [decane] + CCCCCCn1cc[n+](C)c1C.O=S(=O)([N-]S(=O)(=O)C(F)(F)F)C(F)(F)F"
  Assigned class: "met"
- Molecule: "C1=CCCCC1 [cyclohexene] + CCCCCCn1cc[n+](C)c1C.O=S(=O)([N-]S(=O)(=O)C(F)(F)F)C(F)(F)F"
  Assigned class: "met"
- Molecule: "Cc1cccc(C)c1 [1,3-dimethylbenzene] + CCCCCCn1cc[n+](C)c1C.O=S(=O)([N-]S(=O)(=O)C(F)(F)F)C(F)(F)F"
  Assigned class: "not met"
- Molecule: "CC#N [acetonitrile] + CCCCCCn1cc[n+](C)c1C.O=S(=O)([N-]S(=O)(=O)C(F)(F)F)C(F)(F)F"
  Assigned class: "not met"
- Molecule: "CCOC(C)=O [ethyl acetate] + CCCCCCn1cc[n+](C)c1C.O=S(=O)([N-]S(=O)(=O)C(F)(F)F)C(F)(F)F"
  Assigned class: "not met"
- Molecule: "CCCCCCC [heptane] + CCCCCCn1cc[n+](C)c1C.O=S(=O)([N-]S(=O)(=O)C(F)(F)F)C(F)(F)F"
  Assigned class: "met"

----------
- Test description: activity coefficient (dimensionless); of the first substance listed, at infinite dilution; xn = mol fraction of the nth substance listed
- Run conditions: 343.15 K; 101.33 kPa; Liquid; Chromatography; x1 = 0
Mark each entry t if its activity coefficient sits below 2, and f for all others.

- Compound: "C1CCCCC1 [cyclohexane] + CCCCCCn1cc[n+](C)c1C.O=S(=O)([N-]S(=O)(=O)C(F)(F)F)C(F)(F)F"
  Assigned class: "f"
- Compound: "CC#N [acetonitrile] + CCCCCCn1cc[n+](C)c1C.O=S(=O)([N-]S(=O)(=O)C(F)(F)F)C(F)(F)F"
  Assigned class: "t"
- Compound: "ClC(Cl)(Cl)Cl [tetrachloromethane] + CCCCCCn1cc[n+](C)c1C.O=S(=O)([N-]S(=O)(=O)C(F)(F)F)C(F)(F)F"
  Assigned class: "f"
- Compound: "CCCCCCCCC [nonane] + CCCCCCn1cc[n+](C)c1C.O=S(=O)([N-]S(=O)(=O)C(F)(F)F)C(F)(F)F"
  Assigned class: "f"
- Compound: "CCCCCCCC [octane] + CCCCCCn1cc[n+](C)c1C.O=S(=O)([N-]S(=O)(=O)C(F)(F)F)C(F)(F)F"
  Assigned class: "f"
- Compound: "Cc1ccc(C)cc1 [1,4-dimethylbenzene] + CCCCCCn1cc[n+](C)c1C.O=S(=O)([N-]S(=O)(=O)C(F)(F)F)C(F)(F)F"
  Assigned class: "t"
- Compound: "Cc1ccccc1 [toluene] + CCCCCCn1cc[n+](C)c1C.O=S(=O)([N-]S(=O)(=O)C(F)(F)F)C(F)(F)F"
  Assigned class: "t"
- Compound: "CCc1ccccc1 [ethylbenzene] + CCCCCCn1cc[n+](C)c1C.O=S(=O)([N-]S(=O)(=O)C(F)(F)F)C(F)(F)F"
  Assigned class: "t"
